- Tested On: Phosphatidylinositol 4,5-bisphosphate 3-kinase catalytic subunit alpha isoform (Homo sapiens)
- Sequence (P42336 whole entry, canonical isoform): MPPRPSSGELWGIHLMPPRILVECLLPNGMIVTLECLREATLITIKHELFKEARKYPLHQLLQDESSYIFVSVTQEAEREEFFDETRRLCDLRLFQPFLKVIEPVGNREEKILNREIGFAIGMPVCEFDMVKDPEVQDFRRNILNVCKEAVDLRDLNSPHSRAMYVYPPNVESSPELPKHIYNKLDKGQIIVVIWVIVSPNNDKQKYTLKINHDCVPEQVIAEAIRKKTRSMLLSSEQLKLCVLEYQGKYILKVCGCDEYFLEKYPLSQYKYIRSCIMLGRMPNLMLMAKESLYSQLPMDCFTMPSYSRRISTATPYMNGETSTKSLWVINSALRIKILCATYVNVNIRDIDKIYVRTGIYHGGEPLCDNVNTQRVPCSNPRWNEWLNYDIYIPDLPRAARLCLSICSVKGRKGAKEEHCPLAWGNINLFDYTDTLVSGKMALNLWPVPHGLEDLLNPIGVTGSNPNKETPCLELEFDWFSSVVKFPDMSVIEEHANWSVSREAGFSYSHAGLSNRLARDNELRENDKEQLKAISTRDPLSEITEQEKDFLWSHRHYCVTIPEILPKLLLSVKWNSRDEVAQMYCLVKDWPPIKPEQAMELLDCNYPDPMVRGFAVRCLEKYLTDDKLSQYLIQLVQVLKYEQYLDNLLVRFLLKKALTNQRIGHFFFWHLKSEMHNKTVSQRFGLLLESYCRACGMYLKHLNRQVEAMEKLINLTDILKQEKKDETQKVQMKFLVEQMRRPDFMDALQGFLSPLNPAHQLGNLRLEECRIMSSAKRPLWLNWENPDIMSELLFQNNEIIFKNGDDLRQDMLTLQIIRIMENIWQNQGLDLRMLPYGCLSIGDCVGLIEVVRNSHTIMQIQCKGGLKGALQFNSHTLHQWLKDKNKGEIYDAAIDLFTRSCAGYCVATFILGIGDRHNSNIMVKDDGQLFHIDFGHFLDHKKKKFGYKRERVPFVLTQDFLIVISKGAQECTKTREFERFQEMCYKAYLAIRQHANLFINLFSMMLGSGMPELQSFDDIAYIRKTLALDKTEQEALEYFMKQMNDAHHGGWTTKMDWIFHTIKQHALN
- Procedure Text: Inhibition of PI3Kalpha (unknown origin) at 10 uM relative to control
Attribute: inhibition
Property Measured: inhibition (%)

>>> print(df.to_string())
                          smiles_data  observed_measurement
0   Nc1nc2ccc(O)cc2c2nc(-c3ccco3)nn12                    72
1  Nc1nc2ccc(Cl)cc2c2nc(-c3ncco3)nn12                    82
2  Nc1nc2ccc(Br)cc2c2nc(-c3ccco3)nn12                    80
3  Nc1nc2ccc(Cl)cc2c2nc(-c3ccco3)nn12                    86

* * *

- Tested On: Casein kinase I isoform epsilon (Homo sapiens, UniProt P49674)
- Sequence (P49674 whole entry, canonical isoform): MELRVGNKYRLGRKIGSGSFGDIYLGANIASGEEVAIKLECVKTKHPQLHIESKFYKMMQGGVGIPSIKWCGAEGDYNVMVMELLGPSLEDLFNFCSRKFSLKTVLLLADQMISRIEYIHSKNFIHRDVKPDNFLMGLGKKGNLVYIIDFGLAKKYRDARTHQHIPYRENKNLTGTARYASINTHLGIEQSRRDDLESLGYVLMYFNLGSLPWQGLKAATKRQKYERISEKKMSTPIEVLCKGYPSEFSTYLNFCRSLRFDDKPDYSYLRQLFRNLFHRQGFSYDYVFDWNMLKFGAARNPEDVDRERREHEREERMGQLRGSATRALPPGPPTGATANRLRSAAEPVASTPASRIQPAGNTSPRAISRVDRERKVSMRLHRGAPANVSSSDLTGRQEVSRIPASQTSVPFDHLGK
- Procedure Text: Inhibition of CK1epsilon (unknown origin)
pIC50: −log10 of the molar value.
Attribute: pIC50
Property Measured: pIC50

In [3]: df
Out[3]:
                          smiles_data  limit_qualifier  observed_measurement
0  Nc1nc2ccc(Br)cc2c2nc(-c3ccco3)nn12                =                  6.42
1  Nc1nc2ccc(Cl)cc2c2nc(-c3ccco3)nn12                =                  6.31
2  Nc1nc2ccc(Cl)cc2c2nc(-c3ncco3)nn12                =                  5.68
3   Nc1nc2ccc(O)cc2c2nc(-c3ccco3)nn12                <                  5.00

* * *

- Tested On: Casein kinase I isoform delta (Homo sapiens)
- Sequence (P48730 whole entry, canonical isoform): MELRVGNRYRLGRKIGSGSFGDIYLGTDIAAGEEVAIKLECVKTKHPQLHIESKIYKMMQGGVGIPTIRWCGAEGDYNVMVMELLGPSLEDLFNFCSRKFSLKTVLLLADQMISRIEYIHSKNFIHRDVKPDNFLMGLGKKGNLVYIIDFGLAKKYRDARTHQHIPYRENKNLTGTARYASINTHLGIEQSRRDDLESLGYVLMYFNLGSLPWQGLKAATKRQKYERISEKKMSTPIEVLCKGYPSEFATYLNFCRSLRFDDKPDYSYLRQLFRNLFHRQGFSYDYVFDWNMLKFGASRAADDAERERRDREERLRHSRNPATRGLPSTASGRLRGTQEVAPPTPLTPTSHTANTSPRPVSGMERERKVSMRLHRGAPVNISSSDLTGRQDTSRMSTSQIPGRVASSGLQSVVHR
- Procedure Text: Inhibition of CK1delta (unknown origin)
Attribute: IC50
Property Measured: IC50

In [3]: df
Out[3]:
                          smiles_data  observed_measurement
0   Nc1nc2ccc(O)cc2c2nc(-c3ccco3)nn12               3640 nM
1  Nc1nc2ccc(Cl)cc2c2nc(-c3ncco3)nn12                430 nM
2  Nc1nc2ccc(Br)cc2c2nc(-c3ccco3)nn12                120 nM
3  Nc1nc2ccc(Cl)cc2c2nc(-c3ccco3)nn12                240 nM

* * *

- Tested On: Phosphatidylinositol 3-kinase catalytic subunit type 3 (Homo sapiens)
- Procedure Text: Inhibition of VPS34 (unknown origin) at 10 uM relative to control
Property Measured: inhibition

                                   compound  observed_measurement
0         Nc1nc2ccc(O)cc2c2nc(-c3ccco3)nn12                   29%
1        Nc1nc2ccc(Cl)cc2c2nc(-c3ncco3)nn12                   10%
2        Nc1nc2ccc(Br)cc2c2nc(-c3ccco3)nn12                    6%
3  Nc1nc2ccc(Cl)cc2c2nc(-c3ccco3)nn12 [CGS-15943]                    5%

* * *

- Tested On: Phosphatidylinositol 4,5-bisphosphate 3-kinase catalytic subunit delta isoform (Homo sapiens)
- Procedure Text: Inhibition of PI3Kdelta (unknown origin) at 10 uM relative to control
Attribute: inhibition
Property Measured: inhibition (%)

In [3]: df
Out[3]:
                          smiles_data  property_measured  observed_measurement
0  Nc1nc2ccc(Br)cc2c2nc(-c3ccco3)nn12         inhibition                    75
1   Nc1nc2ccc(O)cc2c2nc(-c3ccco3)nn12         inhibition                    11
2  Nc1nc2ccc(Cl)cc2c2nc(-c3ccco3)nn12         inhibition                    34
3  Nc1nc2ccc(Cl)cc2c2nc(-c3ncco3)nn12         inhibition                    79

* * *

- Tested On: Casein kinase I isoform alpha (Homo sapiens, UniProt P48729)
- Sequence (P48729 whole entry, canonical isoform): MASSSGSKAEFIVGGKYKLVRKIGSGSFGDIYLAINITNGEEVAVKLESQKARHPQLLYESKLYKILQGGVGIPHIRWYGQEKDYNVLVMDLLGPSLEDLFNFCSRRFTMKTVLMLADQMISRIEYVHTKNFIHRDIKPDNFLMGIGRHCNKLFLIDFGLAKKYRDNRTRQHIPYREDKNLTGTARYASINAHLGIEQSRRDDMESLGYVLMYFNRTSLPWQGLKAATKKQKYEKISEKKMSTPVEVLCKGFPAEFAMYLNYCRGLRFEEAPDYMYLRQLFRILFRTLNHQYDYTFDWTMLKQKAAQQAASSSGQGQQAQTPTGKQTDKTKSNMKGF
- Procedure Text: Inhibition of CK1alpha (unknown origin)
pIC50: −log10 of the molar value.
Property Measured: pIC50

>>> df
                          smiles_data                                 tested_on  observed_measurement
0  Nc1nc2ccc(Br)cc2c2nc(-c3ccco3)nn12  Casein kinase I isoform alpha (Homo sapiens, UniProt P48729)                  6.66
1  Nc1nc2ccc(Cl)cc2c2nc(-c3ccco3)nn12  Casein kinase I isoform alpha (Homo sapiens, UniProt P48729)                  6.09
2  Nc1nc2ccc(Cl)cc2c2nc(-c3ncco3)nn12  Casein kinase I isoform alpha (Homo sapiens, UniProt P48729)                  5.53
3   Nc1nc2ccc(O)cc2c2nc(-c3ccco3)nn12  Casein kinase I isoform alpha (Homo sapiens, UniProt P48729)                  5.21

* * *

- Tested On: Phosphatidylinositol 4,5-bisphosphate 3-kinase catalytic subunit beta isoform (Homo sapiens)
- Procedure Text: Inhibition of PI3Kbeta (unknown origin)
- Sequence (P42338 whole entry, canonical isoform): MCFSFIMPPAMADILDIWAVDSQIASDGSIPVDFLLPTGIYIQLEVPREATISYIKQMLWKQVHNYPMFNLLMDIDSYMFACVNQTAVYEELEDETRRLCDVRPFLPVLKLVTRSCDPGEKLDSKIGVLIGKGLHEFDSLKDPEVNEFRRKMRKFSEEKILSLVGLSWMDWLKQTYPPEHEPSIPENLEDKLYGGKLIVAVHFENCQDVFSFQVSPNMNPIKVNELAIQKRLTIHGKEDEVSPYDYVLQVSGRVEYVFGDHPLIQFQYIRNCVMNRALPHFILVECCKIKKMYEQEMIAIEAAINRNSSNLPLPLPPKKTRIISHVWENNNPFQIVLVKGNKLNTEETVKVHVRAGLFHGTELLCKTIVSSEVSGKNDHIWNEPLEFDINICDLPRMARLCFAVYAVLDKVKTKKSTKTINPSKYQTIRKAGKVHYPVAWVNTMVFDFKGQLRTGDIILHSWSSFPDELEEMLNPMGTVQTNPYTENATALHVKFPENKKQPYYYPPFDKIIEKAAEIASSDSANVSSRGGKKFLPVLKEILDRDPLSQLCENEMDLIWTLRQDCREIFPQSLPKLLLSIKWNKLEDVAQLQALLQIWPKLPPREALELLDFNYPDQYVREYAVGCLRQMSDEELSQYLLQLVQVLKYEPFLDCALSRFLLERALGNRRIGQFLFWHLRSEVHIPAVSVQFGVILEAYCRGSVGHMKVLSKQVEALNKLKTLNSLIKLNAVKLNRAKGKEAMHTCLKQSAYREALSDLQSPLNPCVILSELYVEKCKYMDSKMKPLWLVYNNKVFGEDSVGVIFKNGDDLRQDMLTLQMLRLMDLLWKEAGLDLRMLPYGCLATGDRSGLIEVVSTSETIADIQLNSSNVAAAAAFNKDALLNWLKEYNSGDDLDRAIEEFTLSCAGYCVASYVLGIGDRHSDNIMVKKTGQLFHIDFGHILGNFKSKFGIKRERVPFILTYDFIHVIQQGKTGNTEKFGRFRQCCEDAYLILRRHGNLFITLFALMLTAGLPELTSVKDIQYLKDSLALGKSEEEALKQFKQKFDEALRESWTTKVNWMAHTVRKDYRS
Property Measured: IC50

                          smiles_data  property_measured  observed_measurement
0  Nc1nc2ccc(Cl)cc2c2nc(-c3ccco3)nn12               IC50               8.48 µM

* * *

- Tested On: Phosphatidylinositol 4,5-bisphosphate 3-kinase catalytic subunit gamma isoform (Homo sapiens, UniProt P48736)
- Procedure Text: Inhibition of PI3Kgamma (unknown origin) at 10 uM relative to control
- Sequence (P48736 whole entry, looked up, canonical isoform): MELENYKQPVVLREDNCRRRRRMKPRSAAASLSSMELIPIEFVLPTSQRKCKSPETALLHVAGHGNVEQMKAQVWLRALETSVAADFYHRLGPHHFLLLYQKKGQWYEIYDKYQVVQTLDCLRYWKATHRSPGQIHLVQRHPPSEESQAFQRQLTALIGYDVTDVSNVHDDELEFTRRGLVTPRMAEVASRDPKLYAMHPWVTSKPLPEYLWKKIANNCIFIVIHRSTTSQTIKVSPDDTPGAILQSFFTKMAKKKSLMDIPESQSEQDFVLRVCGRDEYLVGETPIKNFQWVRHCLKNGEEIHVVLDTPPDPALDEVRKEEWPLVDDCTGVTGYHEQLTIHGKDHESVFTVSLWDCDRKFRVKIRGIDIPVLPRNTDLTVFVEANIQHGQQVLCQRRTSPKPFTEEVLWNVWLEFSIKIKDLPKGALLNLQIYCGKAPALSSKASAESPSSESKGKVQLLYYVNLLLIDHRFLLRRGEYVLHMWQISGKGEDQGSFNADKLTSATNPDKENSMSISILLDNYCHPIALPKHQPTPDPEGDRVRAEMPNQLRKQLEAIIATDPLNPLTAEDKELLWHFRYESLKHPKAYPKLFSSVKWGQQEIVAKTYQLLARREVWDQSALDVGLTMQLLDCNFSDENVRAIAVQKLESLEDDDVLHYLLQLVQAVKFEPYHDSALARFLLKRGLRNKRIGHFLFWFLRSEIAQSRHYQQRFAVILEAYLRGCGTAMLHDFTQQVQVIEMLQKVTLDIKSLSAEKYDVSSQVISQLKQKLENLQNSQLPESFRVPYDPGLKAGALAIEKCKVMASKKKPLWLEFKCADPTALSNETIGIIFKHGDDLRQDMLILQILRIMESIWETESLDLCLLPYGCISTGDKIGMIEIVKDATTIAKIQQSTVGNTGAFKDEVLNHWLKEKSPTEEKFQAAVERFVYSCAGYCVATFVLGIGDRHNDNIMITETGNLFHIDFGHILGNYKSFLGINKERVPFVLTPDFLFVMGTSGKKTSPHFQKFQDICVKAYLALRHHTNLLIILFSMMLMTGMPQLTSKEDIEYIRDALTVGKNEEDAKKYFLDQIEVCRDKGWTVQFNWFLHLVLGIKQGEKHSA
Property Measured: inhibition

>>> print(df.to_string())
                                   molecule  observed_measurement
0        Nc1nc2ccc(Cl)cc2c2nc(-c3ncco3)nn12                   91%
1  Nc1nc2ccc(Cl)cc2c2nc(-c3ccco3)nn12 [CGS-15943]                   96%
2        Nc1nc2ccc(Br)cc2c2nc(-c3ccco3)nn12                   93%
3         Nc1nc2ccc(O)cc2c2nc(-c3ccco3)nn12                   79%

* * *

- Tested On: Phosphatidylinositol 4,5-bisphosphate 3-kinase catalytic subunit alpha isoform (Homo sapiens)
- Procedure Text: Inhibition of PI3Kalpha (unknown origin)
Property Measured: IC50 (nM)

>>> df
                          smiles_data  property_measured  observed_measurement
0  Nc1nc2ccc(Cl)cc2c2nc(-c3ccco3)nn12               IC50                  1280

* * *

- Tested On: Phosphatidylinositol 4,5-bisphosphate 3-kinase catalytic subunit beta isoform (Homo sapiens, UniProt P42338)
- Procedure Text: Inhibition of PI3Kbeta (unknown origin) at 10 uM relative to control
- Sequence (P42338 whole entry, looked up, canonical isoform): as the sequence (P42338 whole entry, canonical isoform) above
Property Measured: inhibition

                                   molecule  property_measured  observed_measurement
0        Nc1nc2ccc(Cl)cc2c2nc(-c3ncco3)nn12         inhibition                   29%
1  Nc1nc2ccc(Cl)cc2c2nc(-c3ccco3)nn12 [CGS-15943]         inhibition                   39%
2        Nc1nc2ccc(Br)cc2c2nc(-c3ccco3)nn12         inhibition                   27%
3         Nc1nc2ccc(O)cc2c2nc(-c3ccco3)nn12         inhibition                    0%

* * *

- Tested On: Phosphatidylinositol 4,5-bisphosphate 3-kinase catalytic subunit gamma isoform (Homo sapiens, UniProt P48736)
- Procedure Text: Inhibition of PI3Kgamma (unknown origin)
- Sequence (P48736 whole entry, canonical isoform): as the sequence (P48736 whole entry, looked up, canonical isoform) above
pIC50: −log10 of the molar value.
Property Measured: pIC50

                          smiles_data  property_measured  observed_measurement
0  Nc1nc2ccc(Cl)cc2c2nc(-c3ccco3)nn12              pIC50                  6.96

These measurements were taken from ChEMBL document CHEMBL5096233.
